Data origin, for the record: the kinase profiling compilation of Christmann-Franck et al. (2016)

molecular target: STK24 (human) (UniProt Q9Y6E0); assay: radiometric filter-binding kinase assay, Kinase HotSpot; conditions: compound 0.5 µM; ATP 10 µM
Sequence (Q9Y6E0 whole entry, looked up): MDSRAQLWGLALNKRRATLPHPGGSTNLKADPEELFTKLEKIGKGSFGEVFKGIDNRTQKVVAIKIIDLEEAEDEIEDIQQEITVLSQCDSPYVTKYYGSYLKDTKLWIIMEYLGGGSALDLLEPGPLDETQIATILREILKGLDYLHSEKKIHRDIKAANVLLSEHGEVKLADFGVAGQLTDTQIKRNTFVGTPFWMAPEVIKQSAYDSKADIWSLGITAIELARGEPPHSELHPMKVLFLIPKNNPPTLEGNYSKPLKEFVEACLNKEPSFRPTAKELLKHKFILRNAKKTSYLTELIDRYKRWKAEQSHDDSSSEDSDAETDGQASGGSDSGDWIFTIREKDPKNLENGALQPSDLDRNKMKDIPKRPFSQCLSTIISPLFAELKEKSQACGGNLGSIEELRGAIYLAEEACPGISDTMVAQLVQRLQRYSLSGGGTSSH
Assign class by residual activity: not lower than 80% means y; lower than 80% means n.

>  <SUBSTANCE_SMILES>
COc1cc2ncnc(Nc3ccc(F)c(Cl)c3)c2cc1OCCCN1CCOCC1

>  <LABEL>
y

$$$$
>  <SUBSTANCE_SMILES>
Nc1n[nH]c2nnc(-c3c(-c4ccccc4)nn4ccccc34)cc12

>  <LABEL>
n

$$$$
>  <SUBSTANCE_SMILES>
Cc1ccc(NC(=O)c2ccc(CN3CCN(C)CC3)cc2)cc1Nc1nc(-c2cccnc2)cs1

>  <LABEL>
y

$$$$
>  <SUBSTANCE_SMILES>
COc1ccc(-c2cnc3c(-c4ccsc4)cnn3c2)cc1

>  <LABEL>
y

$$$$
>  <SUBSTANCE_SMILES>
Nc1nc(Nc2ccc(S(N)(=O)=O)cc2)nn1C(=S)Nc1c(F)cccc1F

>  <LABEL>
n

$$$$
>  <SUBSTANCE_SMILES>
Clc1ccc(Nc2nnc(Cc3ccncc3)c3ccccc23)cc1

>  <LABEL>
y

$$$$
>  <SUBSTANCE_SMILES>
Nc1nc(Nc2ccc(S(N)(=O)=O)cc2)nn1C(=O)c1c(F)cccc1F

>  <LABEL>
n

$$$$

====

molecular target: TAOK3 (human); experiment: radiometric filter-binding kinase assay, Kinase HotSpot; conditions: compound 0.5 µM; ATP 10 µM
Reported residual activity values for the following molecules.
VALUE_TYPE: residual activity (%)

>  <SUBSTANCE_SMILES>
COc1cc2ncnc(Nc3ccc(F)c(Cl)c3)c2cc1OCCCN1CCOCC1

>  <RESULT_NUMBER>
99.5

$$$$
>  <SUBSTANCE_SMILES>
Cc1ccc(NC(=O)c2ccc(CN3CCN(C)CC3)cc2)cc1Nc1nc(-c2cccnc2)cs1

>  <RESULT_NUMBER>
95.4

$$$$
>  <SUBSTANCE_SMILES>
CC(C)[C@H](CO)Nc1nc(Nc2cccc(Cl)c2)c2ncn(C(C)C)c2n1

>  <RESULT_NUMBER>
91.1

$$$$
>  <SUBSTANCE_SMILES>
C#Cc1cccc(Nc2ncnc3cc(OCCOC)c(OCCOC)cc23)c1

>  <RESULT_NUMBER>
106

$$$$

====

target: NEK1 (human) (UniProt Q96PY6); experiment: radiometric filter-binding kinase assay, Kinase HotSpot; settings: compound 0.5 µM; ATP 10 µM
Sequence (Q96PY6 whole entry, looked up): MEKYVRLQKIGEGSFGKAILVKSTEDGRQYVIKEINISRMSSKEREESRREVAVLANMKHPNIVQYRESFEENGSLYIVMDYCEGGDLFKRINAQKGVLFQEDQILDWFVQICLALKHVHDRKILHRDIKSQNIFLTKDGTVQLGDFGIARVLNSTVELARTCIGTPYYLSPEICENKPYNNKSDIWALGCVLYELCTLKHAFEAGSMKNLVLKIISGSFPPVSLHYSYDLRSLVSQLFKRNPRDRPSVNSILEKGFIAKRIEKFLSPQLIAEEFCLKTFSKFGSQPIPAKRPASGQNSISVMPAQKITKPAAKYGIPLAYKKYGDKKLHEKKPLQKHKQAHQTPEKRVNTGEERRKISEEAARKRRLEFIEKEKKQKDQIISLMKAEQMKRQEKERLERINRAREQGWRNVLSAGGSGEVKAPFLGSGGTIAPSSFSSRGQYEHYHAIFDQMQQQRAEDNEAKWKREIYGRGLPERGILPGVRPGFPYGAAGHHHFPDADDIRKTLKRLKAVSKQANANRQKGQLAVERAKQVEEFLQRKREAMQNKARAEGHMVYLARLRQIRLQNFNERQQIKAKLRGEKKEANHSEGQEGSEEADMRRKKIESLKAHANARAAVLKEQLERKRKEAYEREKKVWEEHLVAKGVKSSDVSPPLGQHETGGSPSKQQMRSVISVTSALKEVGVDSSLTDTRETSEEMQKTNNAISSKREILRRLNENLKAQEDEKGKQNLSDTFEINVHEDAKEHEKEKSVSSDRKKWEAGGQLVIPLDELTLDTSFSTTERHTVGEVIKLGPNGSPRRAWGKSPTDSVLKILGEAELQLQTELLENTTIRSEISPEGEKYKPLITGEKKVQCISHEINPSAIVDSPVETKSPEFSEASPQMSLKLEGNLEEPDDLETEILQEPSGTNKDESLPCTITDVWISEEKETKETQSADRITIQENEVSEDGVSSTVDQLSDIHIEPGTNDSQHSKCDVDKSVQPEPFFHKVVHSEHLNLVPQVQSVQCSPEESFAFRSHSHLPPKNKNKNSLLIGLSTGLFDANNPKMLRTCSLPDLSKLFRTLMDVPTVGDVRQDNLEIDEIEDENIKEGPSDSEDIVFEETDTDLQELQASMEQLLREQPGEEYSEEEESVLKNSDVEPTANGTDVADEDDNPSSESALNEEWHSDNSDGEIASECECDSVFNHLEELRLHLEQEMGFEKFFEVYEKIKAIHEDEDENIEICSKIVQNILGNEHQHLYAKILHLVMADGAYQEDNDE
Kindly apply the following: true (1) if residual activity is less than 90%, false (0) in every other case.

>  <SUBSTANCE_SMILES>
Nc1nc(Nc2ccc(S(N)(=O)=O)cc2)nn1C(=S)Nc1c(F)cccc1F

>  <LABEL>
true (1)

$$$$
>  <SUBSTANCE_SMILES>
Cc1cc2ncc(-c3ccccc3)nc2cc1C

>  <LABEL>
false (0)

$$$$
>  <SUBSTANCE_SMILES>
O=C(Nc1ccc(Cl)cc1)c1ccccc1NCc1ccncc1

>  <LABEL>
false (0)

$$$$
>  <SUBSTANCE_SMILES>
COc1cc2nccc(Oc3ccc(NC(=S)NC(=O)c4ccccc4C)cc3)c2cc1OC

>  <LABEL>
false (0)

$$$$
>  <SUBSTANCE_SMILES>
Cc1ccc(NC(=O)c2ccc(CN3CCN(C)CC3)cc2)cc1Nc1nc(-c2cccnc2)cs1

>  <LABEL>
false (0)

$$$$
>  <SUBSTANCE_SMILES>
Nc1nc(Nc2ccc(S(N)(=O)=O)cc2)nn1C(=O)c1c(F)cccc1F

>  <LABEL>
true (1)

$$$$
>  <SUBSTANCE_SMILES>
O=C1Cc2c([nH]c3ccc([N+](=O)[O-])cc23)-c2ccccc2N1

>  <LABEL>
false (0)

$$$$
>  <SUBSTANCE_SMILES>
O=C1Nc2cc(Br)ccc2/C1=C1/Nc2ccccc2/C1=N\O

>  <LABEL>
false (0)

$$$$
>  <SUBSTANCE_SMILES>
CC(C)(C)c1nc2c3ccc(F)cc3c3c(=O)[nH]ccc3c2[nH]1

>  <LABEL>
true (1)

$$$$
>  <SUBSTANCE_SMILES>
O=c1cc(-c2cccc3c2Sc2ccccc2S3)oc(N2CCOCC2)c1

>  <LABEL>
false (0)

$$$$
>  <SUBSTANCE_SMILES>
Oc1ccc(-c2nc(-c3ccc(F)cc3)c(-c3ccncc3)[nH]2)cc1

>  <LABEL>
false (0)

$$$$
